Numbers sourced from the supplement of paper PMC10567573.

Below is a list of entries, each paired with its recorded protein stability index value.
Test: protein stability index of a GFP-peptide fusion (GPS, HEK-293T) (PSI 1-6); higher = more stable;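 note: 24-mer peptide tiles fused after GFP, lentivirally expressed, FACS-sorted into six equal bins by GFP/DsRed ratio, decoded by Illumina sequencing, PSI is the read-weighted mean bin number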
Details: treatment: DMSO; c terminus: a fixed tail appended
measure.name: protein stability index

seq | measure.name | numeric.readout
SLPQNQCYMATTKSQTACLPFVLA [EHMT1] | protein stability index | 2.35
SRRYTEMALPFFSLAEVRVGYQSQ [MYORG] | protein stability index | 2.3
NFSVDRWERKEGGGGISCVLQDGC [CPOX] | protein stability index | 3.8
SGGYGQDALGMDPMMEHEMGGHHP [CTNNB1] | protein stability index | 4.65
HLAVDKNTTCVGRYPVCKFPSLQV [FEM1C] | protein stability index | 2.46
DQLLLATGLNNGRIKIWDVYTGKL [WSB1] | protein stability index | 2.17
IATATEIAYYSYIYSVVDLGMYQK [SLC19A2] | protein stability index | 3.05
TARAHPAKARDLYKGRQLQGCPGA [SMOC2] | protein stability index | 3.23
VLSYLGLLSQEKLQEQHLSSPQGV [BCL2L13] | protein stability index | 2.29
